All values here come from patent US20100311714A1.

# test_system: PI3K beta (Homo sapiens, UniProt P42338)
# Construct: for the full-length p110-b subunit are generated and fused by overlapping PCR; His tag (C); made in house; host or cells: baculovirus BV949; Tn5 (Trichoplusia ni) or TiniPro insect cells
# Sequence (P42338 with tags, fused parts or gaps limits assumed): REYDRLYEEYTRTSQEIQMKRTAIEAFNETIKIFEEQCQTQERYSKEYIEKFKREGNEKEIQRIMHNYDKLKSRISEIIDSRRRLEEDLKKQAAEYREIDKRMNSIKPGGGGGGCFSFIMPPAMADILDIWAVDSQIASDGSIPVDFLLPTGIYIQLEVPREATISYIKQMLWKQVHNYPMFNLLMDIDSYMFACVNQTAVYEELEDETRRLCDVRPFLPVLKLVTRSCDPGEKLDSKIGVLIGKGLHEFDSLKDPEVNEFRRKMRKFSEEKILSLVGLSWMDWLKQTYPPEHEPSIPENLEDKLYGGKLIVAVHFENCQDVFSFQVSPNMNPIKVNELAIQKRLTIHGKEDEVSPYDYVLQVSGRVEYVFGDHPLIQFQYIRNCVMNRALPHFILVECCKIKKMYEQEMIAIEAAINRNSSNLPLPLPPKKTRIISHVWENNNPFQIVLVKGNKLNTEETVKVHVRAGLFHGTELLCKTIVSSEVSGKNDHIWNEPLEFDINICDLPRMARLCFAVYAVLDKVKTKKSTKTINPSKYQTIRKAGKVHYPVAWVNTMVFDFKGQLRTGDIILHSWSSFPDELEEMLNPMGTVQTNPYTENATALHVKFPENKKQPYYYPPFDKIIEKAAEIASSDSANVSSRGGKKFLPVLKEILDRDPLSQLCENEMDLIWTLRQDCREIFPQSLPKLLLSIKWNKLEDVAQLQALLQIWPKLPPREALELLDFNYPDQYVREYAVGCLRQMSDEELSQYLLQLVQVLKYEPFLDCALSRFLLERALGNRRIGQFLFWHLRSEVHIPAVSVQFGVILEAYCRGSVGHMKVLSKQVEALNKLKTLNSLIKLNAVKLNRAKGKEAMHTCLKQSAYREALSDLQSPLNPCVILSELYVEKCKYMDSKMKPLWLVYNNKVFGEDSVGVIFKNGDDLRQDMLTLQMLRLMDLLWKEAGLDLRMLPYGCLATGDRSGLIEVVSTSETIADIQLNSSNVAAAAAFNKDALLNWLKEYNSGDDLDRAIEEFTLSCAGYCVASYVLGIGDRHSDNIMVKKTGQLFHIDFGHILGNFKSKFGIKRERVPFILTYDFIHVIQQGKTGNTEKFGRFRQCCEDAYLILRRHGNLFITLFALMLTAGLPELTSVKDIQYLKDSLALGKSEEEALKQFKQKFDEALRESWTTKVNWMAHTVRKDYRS
# assay_summary: PI3K beta kinase assay (Kinase-Glo luminescence)
# Assay type: biochemical
# assay_setup: read-out: PI3Kbeta/IC50
Consider the following compounds and their measured pIC50 readings.
Formally, pIC50 is defined as -log10 of the concentration c, with c in mol/L.

Completed entries (count: 5):
smiles_structure=Cc1ncccc1-n1c(=O)n(C)c2cnc3ccc(-c4ccc(C(N)=O)cc4)cc3c21 observed_result=6.24
smiles_structure=COc1ccc(-c2ccc3ncc4c(c3c2)n(-c2cccnc2C)c(=O)n4C)cc1OC observed_result=7.11
smiles_structure=Cc1ncccc1-n1c(=O)n(C)c2cnc3ccc(-c4ccc(N)nc4)cc3c21 observed_result=6.88
smiles_structure=COc1ccc(-n2c(=O)n(C)c3cnc4ccc(-c5cnc(N)c(C(F)(F)F)c5)cc4c32)c(OC)n1 observed_result=7.64
smiles_structure=CCOc1ccc(-c2ccc3ncc4c(c3c2)n(-c2ccc(F)nc2C)c(=O)n4C)cn1 observed_result=6.34

query: Param item = COc1ccc(-c2ccc3ncc4c(c3c2)n(-c2cnccc2C)c(=O)n4C)cn1 ; retrieve measured pIC50.
result: 6.22

query: Also CCOc1ccc(-c2ccc3ncc4c(c3c2)n(-c2cccnc2F)c(=O)n4C)cn1 ?
result: 6.65

query: Query CNc1ccc(-c2ccc3ncc4c(c3c2)n(-c2cccnc2OC)c(=O)n4C)cn1 next
result: 6.43

---

Reported pIC50 values are given for each entry in this list.
# test_system: mTOR (Homo sapiens, UniProt P42345)
# Construct: purchased Invitrogen Corporation (Carlsbad/Calif., USA) PV4753
# Sequence (P42345 1360-2549 limits assumed): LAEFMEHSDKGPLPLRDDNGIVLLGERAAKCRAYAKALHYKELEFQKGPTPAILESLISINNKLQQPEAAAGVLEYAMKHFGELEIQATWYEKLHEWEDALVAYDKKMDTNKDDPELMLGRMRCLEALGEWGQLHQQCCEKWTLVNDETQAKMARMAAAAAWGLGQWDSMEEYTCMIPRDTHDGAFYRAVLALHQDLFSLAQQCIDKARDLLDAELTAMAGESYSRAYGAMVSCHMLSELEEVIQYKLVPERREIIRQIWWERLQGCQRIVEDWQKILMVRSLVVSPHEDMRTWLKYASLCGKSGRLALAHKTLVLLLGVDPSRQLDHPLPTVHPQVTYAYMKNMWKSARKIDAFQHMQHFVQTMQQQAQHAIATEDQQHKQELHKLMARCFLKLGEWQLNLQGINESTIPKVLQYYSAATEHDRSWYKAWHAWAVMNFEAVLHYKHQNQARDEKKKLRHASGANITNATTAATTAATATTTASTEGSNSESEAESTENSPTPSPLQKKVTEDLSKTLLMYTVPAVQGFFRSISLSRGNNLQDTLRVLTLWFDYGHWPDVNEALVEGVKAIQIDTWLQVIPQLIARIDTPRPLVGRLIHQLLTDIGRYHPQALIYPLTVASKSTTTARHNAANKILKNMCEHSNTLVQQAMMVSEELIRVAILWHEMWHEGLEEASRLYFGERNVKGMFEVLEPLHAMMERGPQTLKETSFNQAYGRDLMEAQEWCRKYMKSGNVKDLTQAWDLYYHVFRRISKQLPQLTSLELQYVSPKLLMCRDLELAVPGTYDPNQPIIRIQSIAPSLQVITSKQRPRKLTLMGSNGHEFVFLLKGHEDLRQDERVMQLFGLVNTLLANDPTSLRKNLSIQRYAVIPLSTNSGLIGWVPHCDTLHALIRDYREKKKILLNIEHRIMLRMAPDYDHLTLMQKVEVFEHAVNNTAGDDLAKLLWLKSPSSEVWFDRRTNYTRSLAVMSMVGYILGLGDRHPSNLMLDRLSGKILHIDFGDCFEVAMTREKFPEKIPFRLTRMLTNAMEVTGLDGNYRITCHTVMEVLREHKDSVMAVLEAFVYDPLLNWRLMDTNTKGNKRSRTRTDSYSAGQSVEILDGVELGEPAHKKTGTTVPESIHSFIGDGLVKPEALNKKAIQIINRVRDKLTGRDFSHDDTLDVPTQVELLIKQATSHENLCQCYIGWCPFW
# assay_summary: Biochemical assay for m-TOR by TR-FRET
# assay_setup: read-out: mTOR/IC50
Just so you know, pIC50 here is -log10 of the concentration in molar units; reply with that number alone.

Some entries whose results are on file:
smiles_structure=COc1ncccc1-n1c(=O)n(C)c2cnc3ccc(-c4cnc(N(C)C)nc4)cc3c21 test_system="mTOR (Homo sapiens, UniProt P42345)" observed_result=7.85
smiles_structure=Cc1ncccc1-n1c(=O)n(C)c2cnc3ccc(-c4cnc(N(C)C)nc4)cc3c21 test_system="mTOR (Homo sapiens, UniProt P42345)" observed_result=7.28
smiles_structure=Cc1ncccc1-n1c(=O)n(C)c2cnc3ccc(-c4ccc(C(N)=O)cc4)cc3c21 test_system="mTOR (Homo sapiens, UniProt P42345)" observed_result=7.96

query: Fill blank: measured pIC50 of the compound COc1ncccc1-n1c(=O)n(C)c2cnc3ccc(-c4ccc(F)nc4)cc3c21 is ____.
result: 7.06

---

# test_system: PI3K delta (Homo sapiens, UniProt O00329)
# Construct: for the full-length p110-d subunit are generated and fused by overlapping PCR; His tag (C); made in house; host or cells: baculovirus BV1060; Tn5 (Trichoplusia ni) or TiniPro insect cells
# Sequence (O00329 with tags, fused parts or gaps limits assumed): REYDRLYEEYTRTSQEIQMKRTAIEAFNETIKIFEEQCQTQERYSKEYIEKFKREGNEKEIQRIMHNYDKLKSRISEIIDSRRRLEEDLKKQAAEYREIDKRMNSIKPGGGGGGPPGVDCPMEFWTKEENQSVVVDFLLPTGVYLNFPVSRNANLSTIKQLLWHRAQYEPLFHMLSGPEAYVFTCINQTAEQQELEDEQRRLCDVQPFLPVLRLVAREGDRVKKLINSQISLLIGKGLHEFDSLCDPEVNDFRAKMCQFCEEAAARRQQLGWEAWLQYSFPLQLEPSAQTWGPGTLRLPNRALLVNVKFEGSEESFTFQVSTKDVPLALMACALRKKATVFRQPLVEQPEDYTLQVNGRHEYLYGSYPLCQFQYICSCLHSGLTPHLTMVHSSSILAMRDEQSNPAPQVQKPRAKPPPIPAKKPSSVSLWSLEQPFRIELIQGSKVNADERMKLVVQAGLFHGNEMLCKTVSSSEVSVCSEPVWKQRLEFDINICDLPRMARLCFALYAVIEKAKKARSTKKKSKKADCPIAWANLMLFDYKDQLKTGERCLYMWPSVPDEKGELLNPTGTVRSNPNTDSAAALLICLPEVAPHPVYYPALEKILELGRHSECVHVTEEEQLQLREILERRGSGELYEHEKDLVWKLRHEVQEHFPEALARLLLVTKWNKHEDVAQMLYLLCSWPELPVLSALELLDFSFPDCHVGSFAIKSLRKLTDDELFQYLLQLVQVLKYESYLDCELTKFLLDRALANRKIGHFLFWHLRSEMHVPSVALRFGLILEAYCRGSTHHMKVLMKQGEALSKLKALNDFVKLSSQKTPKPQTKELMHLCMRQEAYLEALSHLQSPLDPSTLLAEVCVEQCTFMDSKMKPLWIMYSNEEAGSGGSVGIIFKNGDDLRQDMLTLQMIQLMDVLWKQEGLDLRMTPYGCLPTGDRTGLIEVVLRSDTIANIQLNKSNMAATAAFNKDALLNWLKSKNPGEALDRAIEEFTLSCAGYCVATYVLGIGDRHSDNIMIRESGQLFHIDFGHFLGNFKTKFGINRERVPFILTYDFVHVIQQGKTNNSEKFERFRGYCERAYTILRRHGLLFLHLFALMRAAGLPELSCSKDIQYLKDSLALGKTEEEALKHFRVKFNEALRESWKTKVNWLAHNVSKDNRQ
# assay_summary: PI3K delta kinase assay (Kinase-Glo luminescence)
# Format: biochemical
# assay_setup: read-out: PI3Kdelta/IC50
pIC50: −log10 of the molar value.
Rule: pIC50 under 7 gives FALSE, otherwise TRUE.

smiles_structure=COc1nc(N2CCNCC2)ccc1-n1c(=O)n(C)c2cnc3ccc(-c4cnc(N)c(C(F)(F)F)c4)cc3c21 label_value=TRUE
smiles_structure=Cc1cccnc1-n1c(=O)n(C)c2cnc3ccc(-c4ccc(C(N)=O)cc4)cc3c21 label_value=FALSE
smiles_structure=CCOc1ncc(-c2ccc3ncc4c(c3c2)n(-c2cccnc2C)c(=O)n4C)cn1 label_value=TRUE

Kindly consider the entry below.
query: Threshold query (pIC50 >= 7) on Cc1cccnc1-n1c(=O)n(C)c2cnc3ccc(-c4cnc5ccccc5c4)cc3c21
result: FALSE

---

# test_system: PI3K beta (Homo sapiens)
# Construct: for the full-length p110-b subunit are generated and fused by overlapping PCR; His tag (C); made in house; host or cells: baculovirus BV949; Tn5 (Trichoplusia ni) or TiniPro insect cells
# assay_summary: PI3K beta kinase assay (Kinase-Glo luminescence)
# Type: biochemical
# assay_setup: read-out: PI3Kbeta/IC50
quantity_measured: log10 IC50 (log10 of the value in µM)
Hello, just confirming the data are log10 of IC50 with units of µM.

Worked examples, 5 compounds total:
compound="COc1nc(N2CCNCC2)ccc1-n1c(=O)n(C)c2cnc3ccc(-c4cnc(N)c(C(F)(F)F)c4)cc3c21 [Example 9.2]" test_system="PI3K beta (Homo sapiens)" observed_result=-1.44
compound="CNc1ccc(-c2ccc3ncc4c(c3c2)n(-c2cccnc2C)c(=O)n4C)cn1 [Example 2.13]" test_system="PI3K beta (Homo sapiens)" observed_result=-0.65
compound="CCOc1ccc(-c2ccc3ncc4c(c3c2)n(-c2cccnc2OC)c(=O)n4C)cn1 [Example 1.5]" test_system="PI3K beta (Homo sapiens)" observed_result=-0.30
compound="COc1ncccc1-n1c(=O)n(C)c2cnc3ccc(-c4cnc5[nH]ccc5c4)cc3c21 [Example 1.2]" test_system="PI3K beta (Homo sapiens)" observed_result=-0.94
compound="Cc1ncccc1-n1c(=O)n(C)c2cnc3ccc(-c4cnc5[nH]ccc5c4)cc3c21 [Example 2.8]" test_system="PI3K beta (Homo sapiens)" observed_result=-0.76

query: Need log10 IC50 of Cc1ncccc1-n1c(=O)n(C)c2cnc3ccc(-c4ccc(CO)nc4)cc3c21 [Example 2.6] , thanks.
result: -0.15

query: Proceed to Cn1c(=O)n(-c2cccnc2F)c2c3cc(-c4cnc5[nH]ccc5c4)ccc3ncc21 [Example 6.3]
result: -0.95

query: Lookup Cc1ncccc1-n1c(=O)n(C)c2cnc3ccc(-c4cnc5c(ccn5C)c4)cc3c21 [Example 2.14]
result: -0.50

---

# assay_summary: Parallel Artificial Membrane Permeability Assay (PAMPA) at pH 6.8
# Assay type: physicochemical
Binary call on HT-perm/logPe pH6.8: Y from -4 upward, N beneath that.

Below are worked cases with known answers.
smiles_structure=COc1ccc(-c2ccc3ncc4c(c3c2)n(-c2ncccc2C)c(=O)n4C)cc1OC label_value=Y
smiles_structure=COc1ccc(-c2ccc3ncc4c(c3c2)n(-c2cccnc2C)c(=O)n4C)cn1 label_value=Y
smiles_structure=COCCOc1cncc(-c2ccc3ncc4c(c3c2)n(-c2cccnc2C)c(=O)n4C)c1 label_value=N
smiles_structure=CNc1ccc(-c2ccc3ncc4c(c3c2)n(-c2cccnc2C)c(=O)n4C)cn1 label_value=N

query: Is the recorded value of HT-perm/logPe pH6.8 equal to or greater than -4 for this molecule? COc1ncccc1-n1c(=O)n(C)c2cnc3ccc(-c4cnc(N(C)C)nc4)cc3c21
result: Y

query: Now the same for COc1ncccc1-n1c(=O)n(C)c2cnc3ccc(-c4cnc5[nH]ccc5c4)cc3c21
result: N

---

# assay_summary: Parallel Artificial Membrane Permeability Assay (PAMPA) at pH 6.8
# Assay type: physicochemical
# Description: The physicochemical properties of relevance for the absorption of the compound, such as the solubility and the membrane permeability, especially at a pH close to neutral pH can be measured using the procedure as described by L. ZHOU et al. in JOURNAL OF PHARMACEUTICAL SCIENCES, VOL. 96, NO. 11, p. […] The following permeability log Pe was measured for compound of formula (I) as exemplified below: […]
quantity_measured: HT-perm/logPe pH6.8
# print the numeric value only

Worked cases, answers included:
smiles_structure=Cc1cccnc1-n1c(=O)n(C)c2cnc3ccc(-c4ccc(N(C)C)nc4)cc3c21 quantity_measured="HT-perm/logPe pH6.8" observed_result=−3.4
smiles_structure=COc1ccc(-c2ccc3ncc4c(c3c2)n(-c2cccnc2)c(=O)n4C)cn1 quantity_measured="HT-perm/logPe pH6.8" observed_result=−3.7
smiles_structure=COc1ccc(-c2ccc3ncc4c(c3c2)n(-c2ncccc2C)c(=O)n4C)cn1 quantity_measured="HT-perm/logPe pH6.8" observed_result=−3.7

Now consider the entry below.
query: What value of measured HT-perm/logPe pH6.8 is listed for Cc1ncccc1-n1c(=O)n(C)c2cnc3ccc(-c4cnc(N(C)C)nc4)cc3c21 ?
result: −3.7

---

# assay_summary: High-throughput equilibrium solubility at pH 6.8
# Assay type: physicochemical
# assay_setup: pH 6.8, aqueous buffer, thermodynamic from solid; read-out: HT-Eq Sol/pH 6.8
quantity_measured: solubility thermodynamic (µg/mL)
Reply with just the number (in µg/mL).

Consider the worked cases shown below.
compound="Cn1c(=O)n(-c2cccnc2F)c2c3cc(-c4cnc(N)c(C(F)(F)F)c4)ccc3ncc21 [Example 6.2]" observed_result=6
compound="COc1ncccc1-n1c(=O)n(C)c2cnc3ccc(-c4ccc(F)nc4)cc3c21 [Example 1.8]" observed_result=4

query: Recorded solubility thermodynamic for Cn1c(=O)n(-c2cccnc2)c2c3cc(-c4ccc(CO)nc4)ccc3ncc21 [Example 5.1] , please?
result: 15

query: How about Cc1nc(N(C)CCO)ccc1-n1c(=O)n(C)c2cnc3ccc(-c4cnc(N)c(C(F)(F)F)c4)cc3c21 [Example 26.1] ?
result: 4

query: Moving on to the next compound: COCCN(C)c1ccc(-n2c(=O)n(C)c3cnc4ccc(-c5cnc6c(ccn6C)c5)cc4c32)c(C)n1 [Example 15.7]
result: 4

query: Now consider CNc1ncc(-c2ccc3ncc4c(c3c2)n(-c2ccc(F)nc2C)c(=O)n4C)cc1F [Example 7.12] .
result: 3

query: Now try CNc1ncc(-c2ccc3ncc4c(c3c2)n(-c2ccc(N3CC[C@H](O)C3)nc2C)c(=O)n4C)cn1 [Example 32.1] .
result: 64

query: // query: COc1cc(-c2ccc3ncc4c(c3c2)n(-c2ccc(N3CC(O)C3)nc2C)c(=O)n4C)cnc1CO [Example 29.5]
result: 256

query: Moving on to the next compound: COCC(=O)Nc1ccc(-n2c(=O)n(C)c3cnc4ccc(-c5cncc(N)c5)cc4c32)c(C)n1 [Example 20.1]
result: 28

query: Next up: CCOc1ccc(-c2ccc3ncc4c(c3c2)n(-c2ccc(OCCOC)nc2C)c(=O)n4C)cn1 [Example 13.1]
result: 3

query: Queued: Cc1ncccc1-n1c(=O)n(C)c2cnc3ccc(-c4ccc(CO)nc4)cc3c21 [Example 2.6]
result: 125

query: Then this compound: CNc1cc(-c2ccc3ncc4c(c3c2)n(-c2ccc(N(C)C)nc2C)c(=O)n4C)cnc1C [Example 19.2]
result: 34

query: Note, next up: Cc1nc(C(C)(C)O)ccc1-n1c(=O)n(C)c2cnc3ccc(-c4cncc(C(C)(C)C#N)c4)cc3c21 [Example 31.6]
result: 3

query: Same question for Cc1ncccc1-n1c(=O)n(C)c2cnc3ccc(-c4cncc(N)c4)cc3c21 [Example 2.25] please.
result: 228

query: Also CN(C)c1ccc(-c2ccc3ncc4c(c3c2)n(-c2cccnc2)c(=O)n4C)cn1 [Example 5.3] ?
result: 4

query: Note, next up: CCOc1ccc(-c2ccc3ncc4c(c3c2)n(-c2ccc(N3CCNCC3)nc2OC)c(=O)n4C)cn1 [Example 9.1]
result: 61
